All values here come from ChEMBL document CHEMBL4346703.

# Lookup of reported fraction unbound keyed by entry
Test: Protein binding in Wistar Han rat plasma
Assay type: ADME, cell-free
Settings: read-out: PPB (converted)
readoutType: fraction unbound

In [3]: df
Out[3]:
                             compoundstring       readouttype  valuemeasured
0  CCn1ncc(-c2nc3c(N[C@H]4CCN(C(=O)C5CC5)C4)ncnc3n2C)c1C  fraction unbound           0.28
1  CCn1ncc(-c2nc3c(O[C@H]4CCN(C(=O)C5CCOCC5)C4)ncnc3n2C)c1C  fraction unbound           0.73
2  CCn1ncc(-c2nc3c(N[C@H]4CCN(C(=O)C5CCOCC5)C4)ncnc3n2C)c1C  fraction unbound           0.52
3  CC[C@H](Nc1ncnc2c1nc(-c1cnn(CC)c1C)n2C)C(=O)N1C[C@@H](C)O[C@@H](C)C1  fraction unbound           0.42
4  CCn1ncc(-c2nc3c(N4CCC(n5c(=O)[nH]c6ncccc65)CC4)ncnc3n2C)c1C  fraction unbound            0.1
5  CCC(=O)N1CC[C@H](Nc2ncnc3c2nc(-c2cnn(CC)c2C)n3C)C1  fraction unbound           0.49
6  CCn1ncc(-c2nc3c(O[C@H]4CCN(C(=O)C5CC5)C4)ncnc3n2C)c1C  fraction unbound           0.33

###

# Lookup of reported fraction unbound keyed by entry
Assay: Protein binding in Beagle dog plasma
Assay type: ADME, cell-free, Canis lupus familiaris
Conditions: read-out: PPB (converted)
readoutType: fraction unbound

>>> df
                             compoundstring  valuemeasured
0  CC[C@H](Nc1ncnc2c1nc(-c1cnn(CC)c1C)n2C)C(=O)N1C[C@@H](C)O[C@@H](C)C1           0.42
1  CCn1ncc(-c2nc3c(N4CCC(n5c(=O)[nH]c6ncccc65)CC4)ncnc3n2C)c1C           0.05
2  CCn1ncc(-c2nc3c(O[C@H]4CCN(C(=O)C5CCOCC5)C4)ncnc3n2C)c1C           0.74
3  CCn1ncc(-c2nc3c(O[C@H]4CCN(C(=O)C5CC5)C4)ncnc3n2C)c1C           0.59

###

Test: Plasma clearance in Wistar Han rat at 0.05 mg/kg
Format: ADME, organism-based
readoutType: clearance

>>> print(df.to_string())
                             compoundstring  valuemeasured
0  CCn1ncc(-c2nc3c(N[C@H]4CCN(C(=O)C5CC5)C4)ncnc3n2C)c1C   49 mL/min/kg
1  CCC(=O)N1CC[C@H](Nc2ncnc3c2nc(-c2cnn(CC)c2C)n3C)C1   58 mL/min/kg
2  CC[C@H](Nc1ncnc2c1nc(-c1cnn(CC)c1C)n2C)C(=O)N1C[C@@H](C)O[C@@H](C)C1   50 mL/min/kg
3  CCn1ncc(-c2nc3c(N[C@H]4CCN(C(=O)C5CCOCC5)C4)ncnc3n2C)c1C   95 mL/min/kg

###

# Lookup of reported clearance keyed by entry
Assay: Plasma clearance in Wistar Han rat at 0.5 mg/kg, iv or 1 mg/kg, po
Format: ADME, organism-based
readoutType: clearance (mL/min/kg)

>>> df
                             compoundstring  unitsymbol  valuemeasured
0  CCn1ncc(-c2nc3c(O[C@H]4CCN(C(=O)C5CCOCC5)C4)ncnc3n2C)c1C   mL/min/kg             41
1  CCn1ncc(-c2nc3c(O[C@H]4CCN(C(=O)C5CC5)C4)ncnc3n2C)c1C   mL/min/kg             23
2  CCn1ncc(-c2nc3c(N4CCC(n5c(=O)[nH]c6ncccc65)CC4)ncnc3n2C)c1C   mL/min/kg            5.8
3  CCn1ncc(-c2nc3c(N[C@H]4CCN(C(=O)C5CCOCC5)C4)ncnc3n2C)c1C   mL/min/kg             95

###

Assay: Drug recovery in rat urine after 24 hrs
Assay type: ADME
Conditions: read-out: Drug recovery
readoutType: dose excreted at 24 h

In [3]: df
Out[3]:
                             compoundstring  valuemeasured
0  CCn1ncc(-c2nc3c(O[C@H]4CCN(C(=O)C5CCOCC5)C4)ncnc3n2C)c1C            17%

###

Biological target: PI3-kinase p110-alpha/p85-alpha (Homo sapiens, UniProt P42336)
Sequence (P27986 whole entry): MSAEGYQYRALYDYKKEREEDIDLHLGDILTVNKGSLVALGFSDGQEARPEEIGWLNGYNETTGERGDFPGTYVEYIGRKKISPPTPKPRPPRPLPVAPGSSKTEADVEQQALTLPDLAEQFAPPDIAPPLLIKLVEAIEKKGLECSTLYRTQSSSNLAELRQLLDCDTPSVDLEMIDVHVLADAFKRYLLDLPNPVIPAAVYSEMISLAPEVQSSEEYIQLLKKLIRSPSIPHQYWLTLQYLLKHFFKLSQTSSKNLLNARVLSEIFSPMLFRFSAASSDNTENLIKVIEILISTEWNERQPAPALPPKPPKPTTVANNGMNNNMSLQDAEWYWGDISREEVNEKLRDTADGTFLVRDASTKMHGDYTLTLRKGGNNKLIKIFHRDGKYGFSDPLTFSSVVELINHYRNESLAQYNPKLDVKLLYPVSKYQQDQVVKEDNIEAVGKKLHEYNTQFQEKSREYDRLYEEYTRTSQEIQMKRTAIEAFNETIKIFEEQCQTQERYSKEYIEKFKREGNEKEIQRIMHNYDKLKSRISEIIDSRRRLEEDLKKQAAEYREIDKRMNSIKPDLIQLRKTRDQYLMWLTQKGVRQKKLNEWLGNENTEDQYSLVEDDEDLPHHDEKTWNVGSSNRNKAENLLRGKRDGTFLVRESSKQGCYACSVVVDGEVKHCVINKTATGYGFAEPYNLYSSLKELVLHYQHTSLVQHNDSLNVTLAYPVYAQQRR
Sequence (P42336 whole entry): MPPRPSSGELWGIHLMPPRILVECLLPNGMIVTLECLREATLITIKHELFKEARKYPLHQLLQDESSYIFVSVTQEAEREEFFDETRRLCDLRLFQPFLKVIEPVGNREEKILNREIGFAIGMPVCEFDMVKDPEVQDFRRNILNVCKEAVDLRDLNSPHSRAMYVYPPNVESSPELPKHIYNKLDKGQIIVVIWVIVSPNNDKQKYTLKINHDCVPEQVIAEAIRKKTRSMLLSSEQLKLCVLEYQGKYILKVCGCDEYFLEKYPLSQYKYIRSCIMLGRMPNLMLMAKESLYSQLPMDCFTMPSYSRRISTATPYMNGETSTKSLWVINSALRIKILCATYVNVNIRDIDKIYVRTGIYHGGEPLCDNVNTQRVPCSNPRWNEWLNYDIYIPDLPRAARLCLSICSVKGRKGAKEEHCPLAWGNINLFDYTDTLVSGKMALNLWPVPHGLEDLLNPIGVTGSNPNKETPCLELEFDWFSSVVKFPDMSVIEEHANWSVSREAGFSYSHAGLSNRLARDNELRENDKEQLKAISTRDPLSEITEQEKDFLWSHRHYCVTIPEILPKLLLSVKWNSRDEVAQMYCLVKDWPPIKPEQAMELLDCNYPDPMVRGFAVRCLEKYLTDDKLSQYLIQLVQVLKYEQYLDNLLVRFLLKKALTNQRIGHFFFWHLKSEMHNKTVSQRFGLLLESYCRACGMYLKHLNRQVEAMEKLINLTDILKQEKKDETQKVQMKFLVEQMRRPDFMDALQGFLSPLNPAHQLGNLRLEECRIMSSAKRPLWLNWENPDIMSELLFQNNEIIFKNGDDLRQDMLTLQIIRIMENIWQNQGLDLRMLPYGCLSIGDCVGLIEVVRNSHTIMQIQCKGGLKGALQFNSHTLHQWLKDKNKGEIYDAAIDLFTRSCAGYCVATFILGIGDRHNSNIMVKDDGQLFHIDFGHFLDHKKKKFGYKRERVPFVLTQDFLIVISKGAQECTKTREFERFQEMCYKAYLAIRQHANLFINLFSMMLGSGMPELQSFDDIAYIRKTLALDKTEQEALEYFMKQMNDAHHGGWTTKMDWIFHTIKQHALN
Test: Inhibition of N-terminal His6-tagged recombinant full length human p110alpha/untagged recombinant full length human p85alpha expressed in baculovirus infected Sf21 insect cells using PIP2 as substrate preincubated for 15 mins followed by substrate addition and measured after 1 hr by HTRF assay
readoutType: IC50

>>> df
                                   compound  valuemeasured
0  CCn1ncc(-c2nc3c(NC4CCN(CC(C)C)C4=O)ncnc3n2C)c1C (racemic)        1.78 µM
1  CCn1ncc(-c2nc3c(O[C@H]4CCN(C(=O)C5CC5)C4)ncnc3n2C)c1C       0.169 µM
2  CCCN1CC[C@H](Nc2ncnc3c2nc(-c2cnn(CC)c2C)n3C)C1        1.31 µM
3  CCn1ncc(-c2nc3c(N[C@H](C)C(=O)N4CCOCC4)ncnc3n2C)c1C        > 10 µM
4  CC[C@H](Nc1ncnc2c1nc(-c1cnn(CC)c1C)n2C)C(=O)N1CCOCC1       0.274 µM

###

Assay: Lipophilicity, log D of the compound
Format: physicochemical
Details: octanol/water
Kind request: treat 1 as inclusive, so logD at 1 or higher is yes (1), anything lower is no (0).

                             compoundstring  assignedcategory
0  CCC(=O)N1CC[C@H](Nc2ncnc3c2nc(-c2cnn(CC)c2C)n3C)C1            no (0)
1  CCn1ncc(-c2nc3c(O[C@H]4CCN(C(=O)C5CCOCC5)C4)ncnc3n2C)c1C           yes (1)
2  CCn1ncc(-c2nc3c(N[C@H]4CCN(C(=O)C5CCOCC5)C4)ncnc3n2C)c1C            no (0)
3  CCn1ncc(-c2nc3c(O[C@H]4CCN(C(=O)C5CC5)C4)ncnc3n2C)c1C           yes (1)
4  CC[C@H](Nc1ncnc2c1nc(-c1cnn(CC)c1C)n2C)C(=O)N1C[C@@H](C)O[C@@H](C)C1           yes (1)
5  CCn1ncc(-c2nc3c(N4CCC(n5c(=O)[nH]c6ncccc65)CC4)ncnc3n2C)c1C           yes (1)

###

Measurement record for cGMP-dependent 3',5'-cyclic phosphodiesterase (Homo sapiens, UniProt O00408); quantity recorded: pIC50.
pIC50: −log10 of the molar value.
readoutType: pIC50

                             compoundstring  relation  valuemeasured
0  CCC(=O)N1CC[C@H](Nc2ncnc3c2nc(-c2cnn(CC)c2C)n3C)C1         <           4.70
1  CCn1ncc(-c2nc3c(N4CCC(n5c(=O)[nH]c6ncccc65)CC4)ncnc3n2C)c1C         =           5.31

###

Target: Phosphatidylinositol 4,5-bisphosphate 3-kinase catalytic subunit delta isoform (Homo sapiens, UniProt O00329)
Sequence (O00329 whole entry): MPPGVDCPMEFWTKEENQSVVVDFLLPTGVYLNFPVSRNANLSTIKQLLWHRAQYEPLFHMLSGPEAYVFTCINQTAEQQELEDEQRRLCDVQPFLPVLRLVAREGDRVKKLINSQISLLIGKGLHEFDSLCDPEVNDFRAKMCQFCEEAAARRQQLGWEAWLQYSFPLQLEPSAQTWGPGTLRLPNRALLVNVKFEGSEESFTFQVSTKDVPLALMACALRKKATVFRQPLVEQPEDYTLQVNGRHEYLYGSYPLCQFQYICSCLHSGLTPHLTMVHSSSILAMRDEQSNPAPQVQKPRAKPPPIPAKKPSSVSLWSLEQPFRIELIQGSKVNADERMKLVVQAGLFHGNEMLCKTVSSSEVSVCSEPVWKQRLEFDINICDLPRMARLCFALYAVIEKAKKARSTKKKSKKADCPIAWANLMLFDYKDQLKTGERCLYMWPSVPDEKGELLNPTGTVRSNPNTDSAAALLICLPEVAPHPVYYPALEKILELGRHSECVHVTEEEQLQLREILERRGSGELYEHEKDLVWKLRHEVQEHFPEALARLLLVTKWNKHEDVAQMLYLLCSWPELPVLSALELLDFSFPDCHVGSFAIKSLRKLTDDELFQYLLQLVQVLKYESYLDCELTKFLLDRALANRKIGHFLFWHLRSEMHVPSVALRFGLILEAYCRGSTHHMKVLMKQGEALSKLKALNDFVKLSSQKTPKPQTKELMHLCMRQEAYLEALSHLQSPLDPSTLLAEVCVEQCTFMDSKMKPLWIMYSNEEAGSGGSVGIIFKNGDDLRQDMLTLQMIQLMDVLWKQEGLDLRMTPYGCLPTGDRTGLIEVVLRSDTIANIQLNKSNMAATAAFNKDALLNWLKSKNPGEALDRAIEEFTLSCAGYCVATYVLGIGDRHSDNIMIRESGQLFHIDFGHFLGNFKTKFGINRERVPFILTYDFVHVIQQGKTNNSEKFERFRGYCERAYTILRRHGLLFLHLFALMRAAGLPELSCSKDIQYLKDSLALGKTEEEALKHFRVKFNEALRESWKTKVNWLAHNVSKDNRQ
Experiment: Inhibition of PI3Kdelta in human Ramos cells assessed as reduction in anti-IgM-antibody-induced phosphorylation of AKT at Ser473 residue preincubated for 20 mins followed by anti-IgM antibody stimulation and measured after 30 mins by alphascreen assay
Type: cell-based
readoutType: IC50 (µM)

>>> print(df.to_string())
                                   compound  valuemeasured
0  CCn1ncc(-c2nc3c(S[C@H]4CCN(C(=O)C5CCOCC5)C4)ncnc3n2C)c1C          0.572
1  CCn1ncc(-c2nc3c(N[C@H]4CCN(C(=O)C5CC5)C4)ncnc3n2C)c1C          0.013
2  CCn1ncc(-c2nc3c(N[C@H]4CCN(C(=O)C5CCOCC5)C4)ncnc3n2C)c1C          0.016
3  CCCN1CC[C@H](Nc2ncnc3c2nc(-c2cnn(CC)c2C)n3C)C1           1.29
4  CCn1ncc(-c2nc3c(NC4CCN(CC(C)C)C4=O)ncnc3n2C)c1C (racemic)           8.33
